# system: T1, 재조합 인간 TIGIT-His 단백질 (recombinant human TIGIT-His protein) (human) (UniProt Q495A1)
# T1 sequence (looked up): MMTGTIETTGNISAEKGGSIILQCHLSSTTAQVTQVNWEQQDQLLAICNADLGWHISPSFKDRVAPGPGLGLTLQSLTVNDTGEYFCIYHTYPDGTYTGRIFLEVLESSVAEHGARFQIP
# assayMethodText: SPR, chimeric antibodies; antigen not given
measuredAttribute: 결합력, fold higher than the control Oncomed-313M32 antibody

# binder, measValue
records = [
    ("chimeric-후보항체 clone 58E (antibody, V domains shown, also called chimeric 58E; 후보항체 58E) VH: EVQLQQSGPELVKPGASVKMSCKASGYTFTSYVMHWVKQKPGQGLEWIGYINLNNDGTKYNEKFKGKATLSSDKSSSTAYMELSSLTSEDSAVYYCARWRVYYYAMDYWGQGTSVTVSS VL: EIVLTQSPAITAASLGQKVTITCSASSSVNYMHWYQQKSGTSPRPWIYEISKLASGVPARFSGSGSGTSYSLTISSMEAEDAAIYYCQLWNYPLITFGAGTKLELK", "13 배"),
]
